The origin of these recorded values is ChEMBL document CHEMBL3507680.

experiment: Human HepG2 cell viability assay in 384 well format; assay type: toxicity, cell-based; design: dose 125 nL, time 70.5 hour; concentration not given beside the values; settings: HepG2 cells, read-out: Inhibition
MEASURED_PROPERTY: cytotoxicity at 70.5 h (%)
Give just the number in %; leave the unit off.

Problem: Returns the measured cytotoxicity at 70.5 h for the input compound. Input: Cn1nccc1C(=O)N1CCN(C(=O)C2CCC2)[C@@H]2CS(=O)(=O)C[C@@H]21
Result: -6.57

Problem: Give its cytotoxicity at 70.5 h value. Item: O=C(c1ccc(C2CCCN2)s1)N1CC=CC1 (stereo unspecified)
Result: -6.78

Problem: State the recorded cytotoxicity at 70.5 h for this entry: Cc1nccc(NCc2cncc3c2CCN(CC2CC2)C3)n1
Result: 9.03

Problem: I have this compound here, CC(C)(C)c1cc(NC(=O)CNC2CCc3ncnn3C2)on1 (stereo unspecified) , and I need its recorded cytotoxicity at 70.5 h.
Result: -11.9

Problem: Given the entry O=C(NCCSCc1ccc(Br)s1)C1CCCN(C(=O)c2cccs2)C1 (stereo unspecified) , report its measured cytotoxicity at 70.5 h.
Result: -8.75

Problem: Recorded cytotoxicity at 70.5 h for O=C(O)c1cc(N2C[C@H](NC(=O)C3CCOCC3)[C@@H](C3CC3)C2)ccn1 , please?
Result: -11.7

Problem: Give the measured cytotoxicity at 70.5 h of CCc1nccn1CCC(=O)N1CC[C@@H](c2sccc2C)[C@H](O)C1 .
Result: -12.3

Problem: GET /values?readout=cytotoxicity at 70.5 h&item= Cc1nnc(NC(=O)CN2CCCC2c2c(C)nn(C)c2C)s1 (stereo unspecified)
Result: 7.87

Problem: // returns reported cytotoxicity at 70.5 h for input O=C(c1ccc2c(c1)OCO2)N1CCCC(Nc2ccc(F)cc2)C1 (stereo unspecified)
Result: -2.98

Problem: Return reported cytotoxicity at 70.5 h; argument: COc1cc(CNC(=O)NCCCF)cc(Br)c1OC
Result: -2.35

Problem: Which cytotoxicity at 70.5 h is listed for Cc1noc(C)c1CN1CCCC2(C1)CN(c1nccs1)CCO2 (stereo unspecified) ?
Result: -2.38

Problem: What cytotoxicity at 70.5 h value was documented for this compound, CCC(CC)C(=O)N1CCN(Cc2nc3ccccc3c(=O)[nH]2)CC1 ?
Result: -14.5

Problem: Quick check: cytotoxicity at 70.5 h of CCC1=N[C@@]2(CC[C@@H]3CN(Cc4cccc(Cl)c4)C[C@@H]32)C(=O)N1C ?
Result: 16.7

Problem: Dear colleague, I am looking for the recorded cytotoxicity at 70.5 h of the following compound: Cc1cnn(CC2CCCN2C(=O)c2sccc2-n2cnnn2)c1 (stereo unspecified)
Result: -4.41

Problem: Suppose we examine the compound COCCO[C@@H]1CCN(c2cc(OC)ncn2)[C@H]1Cc1cnn(C)c1 ; what cytotoxicity at 70.5 h value has been reported?
Result: -4.31

Problem: Which cytotoxicity at 70.5 h reading was recorded for the compound COCCN(C)CC1CCCN1S(=O)(=O)c1cc(C)oc1C (stereo unspecified) ?
Result: -4.11

Problem: Item COc1cccc(OC)c1-c1ccnc2cc(CC(=O)NC3CC3)nn12 has what recorded cytotoxicity at 70.5 h?
Result: -11

Problem: Report cytotoxicity at 70.5 h for O=C(c1ccno1)N1CCC2(CC1)C(=O)N(CC1CC1)c1ccccc12 please.
Result: -17.3

Problem: Report cytotoxicity at 70.5 h for CCCc1cc(C(=O)N2CCCC(n3ccnc3C)C2)[nH]n1 (stereo unspecified) please.
Result: 32.7

Problem: Need cytotoxicity at 70.5 h of Cc1cccc2nc(CN3CCCC(C)C3)cc(=O)n12 (stereo unspecified) , thanks.
Result: 13.9

Problem: cytotoxicity at 70.5 h for COc1ccc(C2=CCN(C(=O)C3CC(=O)N(C4CC4)C3)CC2)cc1 (stereo unspecified) ?
Result: -12.9

Problem: Record request: cytotoxicity at 70.5 h value, item Fc1cccc(-c2cccc(N3CCC(NC4CCCOC4)CC3)c2)c1 (stereo unspecified)
Result: 33.8

Problem: Which cytotoxicity at 70.5 h is reported for this compound? Cc1ccc(OCC(=O)N2CCCC(n3nc(C)nc3C)C2)cc1 (stereo unspecified)
Result: -8.6

Problem: Entry O=C(NCCCn1cncn1)N1CCCC(N2CCCC2)C1 (stereo unspecified) has what cytotoxicity at 70.5 h?
Result: -4.6

Problem: For CCCn1c(C)c(CC(=O)NCCC(N)=O)c2c1CC(C)(C)CC2=O , what is its reported cytotoxicity at 70.5 h?
Result: 11.1

Problem: Dear colleague, I am looking for the recorded cytotoxicity at 70.5 h of the following compound: c1ccc(NCc2cnc3n2CCN(CC2CCOC2)CC3)nc1 (stereo unspecified)
Result: -8.55

Problem: Requested read-out: cytotoxicity at 70.5 h. Entry: Cn1ccnc1C(NCc1ccc(Br)cc1)c1ccccc1 (stereo unspecified)
Result: -0.0759

Problem: Given O=C(c1cc(C2CC2)n[nH]1)N1C[C@H]2CC[C@](O)(c3ccccc3F)[C@H]2C1 , state its recorded cytotoxicity at 70.5 h.
Result: -2.83

Problem: Could you tell me which cytotoxicity at 70.5 h is on file for O=C1NCCN1C1CCN(Cc2ccccn2)CC1 ?
Result: -5.43

Problem: Using the record for CC(C)CNc1nnc(SC(C(=O)NCc2cccnc2)C(C)C)s1 (stereo unspecified) , report its cytotoxicity at 70.5 h.
Result: -15.2

Problem: # query: cytotoxicity at 70.5 h of entry c1cncc(C2CC3(CCN(c4cnccn4)CC3)c3ccccc32)c1 (stereo unspecified)
Result: -1.15

Problem: May I ask what cytotoxicity at 70.5 h has been recorded for Cc1ccc(S(=O)(=O)N2C[C@@H]3C[C@@H](NC(=O)C(C)(C)C)[C@@H]3C2)cc1 ?
Result: -16.5

Problem: Reported cytotoxicity at 70.5 h for COCCOCCNC(=O)C(C)Oc1ccccc1C(F)(F)F (stereo unspecified) : what is it?
Result: -5.94

Problem: # get_value(readout='cytotoxicity at 70.5 h', item= Cc1[nH]ccc1C(=O)NC1CCC(N2C(=O)CCC2=O)CC1 (stereo unspecified) )
Result: -2.84

Problem: Field request: cytotoxicity at 70.5 h | item: CCS(=O)(=O)NCC1CCN(c2cnccn2)CC1
Result: -6.43

Problem: Which cytotoxicity at 70.5 h value is on record for c1cncc(CN2CCCC(Nc3ncnc4c3CCNCC4)C2)c1 (stereo unspecified) ?
Result: -11.7

Problem: So what does the record say about cytotoxicity at 70.5 h for COCCn1ccc(NCc2sccc2C)n1 ?
Result: -3.13

Problem: May I ask what cytotoxicity at 70.5 h has been recorded for O=C(N1CCCO1)[C@@]12CCO[C@@H]1CCN(Cc1ccccn1)C2 ?
Result: 2.18

Problem: Would you mind telling me what cytotoxicity at 70.5 h value was observed for CCCn1cc(NC(=O)c2ccc(NC(=O)NC3CC3)cc2)ccc1=O ?
Result: -10.8

Problem: Look up cytotoxicity at 70.5 h: O=C(c1ccncc1)N1C[C@@H]2OCCN(CCN3CCCC3)[C@@H]2C1
Result: -4.2

Problem: Can you look up the measured cytotoxicity at 70.5 h of Cc1ccc(-c2[nH]c3ccccc3c2C(=O)O)c(C)c1 for me?
Result: -4.63

Problem: I am curious: what cytotoxicity at 70.5 h value has been reported for CCCN(Cc1cccnc1)Cc1ccc(C2CCCCO2)o1 (stereo unspecified) ?
Result: -2.3

Problem: I would be grateful if you could share the reported cytotoxicity at 70.5 h for CCN1CC2(CC1=O)CN(C(=O)c1ccco1)CCN(C(=O)N(C)C)C2 (stereo unspecified) .
Result: -5.37

Problem: So what does the record say about cytotoxicity at 70.5 h for O=C(NCCc1ccccn1)[C@@]12CCO[C@@H]1CCN(C1CCC1)C2 ?
Result: -6.9

Problem: Need cytotoxicity at 70.5 h, item COc1c(C)cc(S(=O)(=O)NCC2CNCCOC2)cc1C (stereo unspecified)
Result: 3.62

Problem: Recorded cytotoxicity at 70.5 h of N#Cc1ccc(CN(CCF)Cc2cccc(F)c2)cc1 , please.
Result: 6.81
